Recorded measurements of IC50, one per entry
Target: Cytochrome P450 2D6 (Homo sapiens, UniProt P10635)
Sequence (P10635 whole entry): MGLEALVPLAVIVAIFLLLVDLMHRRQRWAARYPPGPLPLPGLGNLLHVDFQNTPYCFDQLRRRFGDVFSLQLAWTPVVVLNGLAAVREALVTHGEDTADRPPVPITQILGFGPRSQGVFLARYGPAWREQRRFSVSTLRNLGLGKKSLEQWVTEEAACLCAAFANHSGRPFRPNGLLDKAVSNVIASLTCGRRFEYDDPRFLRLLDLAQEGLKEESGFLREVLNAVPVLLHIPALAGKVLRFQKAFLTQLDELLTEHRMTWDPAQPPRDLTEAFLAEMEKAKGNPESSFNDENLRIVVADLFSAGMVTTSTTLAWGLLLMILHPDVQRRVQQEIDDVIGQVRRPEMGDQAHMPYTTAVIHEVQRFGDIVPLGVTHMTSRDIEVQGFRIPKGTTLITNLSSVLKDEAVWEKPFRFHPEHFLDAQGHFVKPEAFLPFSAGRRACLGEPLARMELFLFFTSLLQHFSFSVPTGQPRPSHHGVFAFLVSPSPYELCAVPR
Experiment: Inhibition of recombinant human CYP2D6 expressed in Escherichia coli bactosomes using 4-methylaminomethyl-7-methoyxycoumarin as substrate after 10 mins by fluorescence assay
property_name: IC50 (µM)

structure_smiles_string: CC(=O)N1c2ccc(-c3ccc(C(=O)O)cc3)cc2[C@H](Nc2ccc(Cl)cc2)C[C@@H]1C
property_name: IC50
reading_qualifier: >
reported_measurement: 33
//
structure_smiles_string: CC(=O)N1c2ccc(-c3ccc(CN4CCCCC4)cc3)cc2[C@H](Nc2ccccc2)C[C@@H]1C
property_name: IC50
reading_qualifier: =
reported_measurement: 8

###

Target: Bromodomain-containing protein 3 (Homo sapiens, UniProt Q15059)
Sequence (Q15059 whole entry, the tested form may be a part): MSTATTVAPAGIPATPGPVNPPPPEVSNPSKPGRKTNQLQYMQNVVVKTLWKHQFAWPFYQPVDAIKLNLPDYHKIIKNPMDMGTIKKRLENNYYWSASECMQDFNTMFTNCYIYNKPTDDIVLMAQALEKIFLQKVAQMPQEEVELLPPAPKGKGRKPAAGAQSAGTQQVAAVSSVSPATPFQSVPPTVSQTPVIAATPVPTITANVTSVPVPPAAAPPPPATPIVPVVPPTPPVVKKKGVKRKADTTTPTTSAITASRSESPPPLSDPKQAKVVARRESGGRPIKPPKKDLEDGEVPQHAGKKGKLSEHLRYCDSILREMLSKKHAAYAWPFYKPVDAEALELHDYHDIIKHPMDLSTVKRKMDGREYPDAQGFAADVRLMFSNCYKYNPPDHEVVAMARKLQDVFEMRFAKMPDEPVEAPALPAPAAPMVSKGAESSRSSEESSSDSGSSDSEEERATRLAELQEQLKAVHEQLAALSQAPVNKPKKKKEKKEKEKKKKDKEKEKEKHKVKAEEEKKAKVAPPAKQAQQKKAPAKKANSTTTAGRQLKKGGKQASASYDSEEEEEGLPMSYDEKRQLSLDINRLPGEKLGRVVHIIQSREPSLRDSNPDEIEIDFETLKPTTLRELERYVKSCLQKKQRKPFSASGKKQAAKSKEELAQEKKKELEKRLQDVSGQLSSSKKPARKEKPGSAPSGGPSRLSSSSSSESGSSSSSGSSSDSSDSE
Assay: Inhibition of human BRD3 bromodomain 2 by BROMOscan assay
pIC50: −log10 of the molar value.
property_name: pIC50

structure_smiles_string: CC(=O)N1c2ccc(-c3ccc(C(=O)O)cc3)cc2[C@H](Nc2ccc(Cl)cc2)C[C@@H]1C
property_name: pIC50
reported_measurement: 8.70

###

Test: Fraction unbound in human blood by rapid equilibrium dialysis method
Format: ADME, tissue-based

structure_smiles_string: CC(=O)N1c2ccc(-c3ccc(C(=O)O)cc3)cc2[C@H](Nc2ccc(Cl)cc2)C[C@@H]1C
fraction unbound: 0.017

###

Target: Cytochrome P450 3A4 (Homo sapiens)
Sequence (P08684 whole entry): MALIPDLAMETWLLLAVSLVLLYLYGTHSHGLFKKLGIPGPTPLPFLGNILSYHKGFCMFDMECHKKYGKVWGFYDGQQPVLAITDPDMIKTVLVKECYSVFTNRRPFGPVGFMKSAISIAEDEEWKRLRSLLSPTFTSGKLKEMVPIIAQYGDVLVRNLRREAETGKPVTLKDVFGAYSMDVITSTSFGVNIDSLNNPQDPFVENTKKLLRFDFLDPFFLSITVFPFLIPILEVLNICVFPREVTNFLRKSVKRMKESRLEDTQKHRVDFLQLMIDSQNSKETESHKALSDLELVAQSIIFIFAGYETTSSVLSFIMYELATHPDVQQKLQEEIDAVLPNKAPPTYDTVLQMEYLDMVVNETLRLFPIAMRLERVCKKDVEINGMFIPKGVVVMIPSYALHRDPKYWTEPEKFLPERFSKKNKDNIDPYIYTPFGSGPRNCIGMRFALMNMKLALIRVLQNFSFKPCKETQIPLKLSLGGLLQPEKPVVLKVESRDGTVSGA
Test: Inhibition of human recombinant CYP3A4 expressed in Escherichia coli bactosomes using diethoxyfluorescein as substrate after 10 mins by fluorescence assay
Assay type: ADME
property_name: IC50

structure_smiles_string: CC(=O)N1c2ccc(-c3ccc(CN4CCCCC4)cc3)cc2[C@H](Nc2ccccc2)C[C@@H]1C
property_name: IC50
reported_measurement: 2000 nM

###

Biological target: Bromodomain-containing protein 2 (Homo sapiens, UniProt P25440)
Sequence (P25440 whole entry, the tested form may be a part): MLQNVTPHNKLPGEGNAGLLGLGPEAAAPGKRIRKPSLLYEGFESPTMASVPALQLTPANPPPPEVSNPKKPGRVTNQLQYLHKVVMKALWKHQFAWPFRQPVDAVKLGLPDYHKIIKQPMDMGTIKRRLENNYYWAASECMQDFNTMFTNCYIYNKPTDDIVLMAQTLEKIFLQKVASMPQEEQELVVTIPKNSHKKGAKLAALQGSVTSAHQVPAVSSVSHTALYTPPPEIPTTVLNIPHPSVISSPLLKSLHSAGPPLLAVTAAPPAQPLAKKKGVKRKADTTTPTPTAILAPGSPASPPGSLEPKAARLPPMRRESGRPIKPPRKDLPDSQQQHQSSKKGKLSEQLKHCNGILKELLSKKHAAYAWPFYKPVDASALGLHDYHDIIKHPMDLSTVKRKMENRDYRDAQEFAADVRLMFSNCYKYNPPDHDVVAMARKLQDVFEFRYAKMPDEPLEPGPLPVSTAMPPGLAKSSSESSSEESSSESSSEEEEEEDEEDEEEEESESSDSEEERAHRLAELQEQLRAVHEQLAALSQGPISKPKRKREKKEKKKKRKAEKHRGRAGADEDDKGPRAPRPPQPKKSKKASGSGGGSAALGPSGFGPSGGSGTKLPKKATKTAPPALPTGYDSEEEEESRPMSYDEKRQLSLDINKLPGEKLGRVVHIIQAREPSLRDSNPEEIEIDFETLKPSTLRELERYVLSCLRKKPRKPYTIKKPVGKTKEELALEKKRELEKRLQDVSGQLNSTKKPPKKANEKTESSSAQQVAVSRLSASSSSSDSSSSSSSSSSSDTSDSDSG
Assay: Displacement of biotinylated tetra-acetylated histone H4 from His6-tagged BRD2 (1 to 473 aa) (unknown origin) after 1 hr by TR-FRET assay
pIC50: −log10 of the molar value.
Classify as follows. Reported pIC50 greater than or equal to 6: Criterion met. Reported pIC50 below: Criterion not met.

molecule: COC(=O)c1cccc(-c2ccc3c(c2)[C@H](Nc2ccc(Cl)cc2)C[C@H](C)N3C(C)=O)c1 (racemic)
category_label: Criterion not met
//
molecule: CC(=O)N1c2ccc(-c3ccc(CN4CCCCC4)cc3)cc2[C@@H](Nc2ccccc2)C[C@H]1C
category_label: Criterion not met
//
molecule: CC(=O)N1c2ccc(-c3ccc(C(F)(F)F)cc3)cc2[C@H](Nc2ccccc2)C[C@@H]1C (racemic)
category_label: Criterion not met
//
molecule: CC(=O)N1c2ccc(-c3ccc(C(=O)O)cc3)cc2[C@H](Nc2ccc(Cl)cc2)C[C@@H]1C (racemic)
category_label: Criterion met
//
molecule: COc1cccc(N[C@@H]2C[C@H](C)N(C(C)=O)c3ccc(-c4ccc(C#N)cc4)cc32)c1 (racemic)
category_label: Criterion not met
//
molecule: COc1ccc(-c2ccc3c(c2)[C@H](Nc2ccccc2)CCN3C(C)=O)cc1 (racemic)
category_label: Criterion not met

###

System: Hepatocyte
Assay: Clearance in rat hepatocytes assessed per gram of tissue at 1 uM by LC-MS/MS analysis
Format: ADME, cell-based
Recorded measurements of CLH, one per entry

structure_smiles_string: CC(=O)N1c2ccc(-c3ccc(C(=O)O)cc3)cc2[C@H](Nc2ccc(Cl)cc2)C[C@@H]1C
reading_qualifier: <
CLH / mL/min/g: 0.85
//
structure_smiles_string: CC(=O)N1c2ccc(-c3ccc(CN4CCCCC4)cc3)cc2[C@H](Nc2ccccc2)C[C@@H]1C
reading_qualifier: =
CLH / mL/min/g: 0.8

###

Target: Bromodomain-containing protein 7 (Homo sapiens, UniProt Q9NPI1)
Sequence (Q9NPI1 whole entry): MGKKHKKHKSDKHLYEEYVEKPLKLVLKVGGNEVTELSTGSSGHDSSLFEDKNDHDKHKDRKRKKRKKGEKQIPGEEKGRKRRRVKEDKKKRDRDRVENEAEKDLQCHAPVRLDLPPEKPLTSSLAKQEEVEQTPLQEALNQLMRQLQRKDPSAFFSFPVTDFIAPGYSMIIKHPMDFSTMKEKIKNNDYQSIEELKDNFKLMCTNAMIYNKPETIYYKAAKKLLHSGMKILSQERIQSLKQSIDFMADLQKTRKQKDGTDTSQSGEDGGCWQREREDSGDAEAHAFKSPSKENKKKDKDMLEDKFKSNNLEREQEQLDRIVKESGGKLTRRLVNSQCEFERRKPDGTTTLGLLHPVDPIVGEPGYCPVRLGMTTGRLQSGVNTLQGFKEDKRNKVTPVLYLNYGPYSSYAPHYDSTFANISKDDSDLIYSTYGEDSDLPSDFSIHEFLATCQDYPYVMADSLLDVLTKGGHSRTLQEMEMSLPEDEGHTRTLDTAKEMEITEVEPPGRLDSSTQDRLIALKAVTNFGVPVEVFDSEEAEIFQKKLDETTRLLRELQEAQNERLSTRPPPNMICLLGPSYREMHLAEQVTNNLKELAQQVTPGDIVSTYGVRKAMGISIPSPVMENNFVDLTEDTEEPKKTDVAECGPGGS
Assay: Inhibition of human BRD7 by BROMOscan assay
pIC50: −log10 of the molar value.

structure_smiles_string: CC(=O)N1c2ccc(-c3ccc(C(=O)O)cc3)cc2[C@H](Nc2ccc(Cl)cc2)C[C@@H]1C
pIC50: < 8.90

###

Target: Bromodomain and WD repeat-containing protein 1 (Homo sapiens, UniProt Q9NSI6)
Experiment: Inhibition of human WDR9 bromodomain 2 by BROMOscan assay
pIC50: −log10 of the molar value.
property_name: pIC50

structure_smiles_string: CC(=O)N1c2ccc(-c3ccc(C(=O)O)cc3)cc2[C@H](Nc2ccc(Cl)cc2)C[C@@H]1C
reported_measurement: 4.50

###

Molecular target: Bromodomain-containing protein 2 (Homo sapiens, UniProt P25440)
Assay: Inhibition of human BRD2 bromodomain 2 by BROMOscan assay
property_name: IC50 (nM)

structure_smiles_string: CC(=O)N1c2ccc(-c3ccc(C(=O)O)cc3)cc2[C@H](Nc2ccc(Cl)cc2)C[C@@H]1C
property_name: IC50
reported_measurement: 3.16

###

Biological target: Bromodomain-containing protein 3 (Homo sapiens)
Experiment: Displacement of biotinylated tetra-acetylated histone H4 from His6-tagged BRD3 (1 to 475 aa) (unknown origin) after 1 hr by TR-FRET assay
pIC50: −log10 of the molar value.
property_name: pIC50

compound: COc1ccc(-c2ccc3c(c2)[C@H](Nc2ccccc2)C[C@H](C)N3C(C)=O)cc1 (racemic)
target: Bromodomain-containing protein 3 (Homo sapiens)
reported_measurement: 6.20

compound: CC(=O)N1c2ccc(-c3ccccc3C)cc2[C@H](Nc2ccc(Cl)cc2)C[C@@H]1C (racemic)
target: Bromodomain-containing protein 3 (Homo sapiens)
reported_measurement: 5.60

compound: CC(=O)N1c2ccc(-c3ccc(C#N)cc3)cc2[C@H](Nc2ccccc2)C[C@@H]1C (racemic)
target: Bromodomain-containing protein 3 (Homo sapiens)
reported_measurement: 6.10

compound: CC(=O)N1c2ccc(-c3ccc(CN4CCCCC4)cc3)cc2[C@H](Nc2ccc(Cl)cc2)C[C@@H]1C (racemic)
target: Bromodomain-containing protein 3 (Homo sapiens)
reported_measurement: 5.90

###

Molecular target: Transcription initiation factor TFIID subunit 1-like (Homo sapiens)
Sequence (Q8IZX4 whole entry): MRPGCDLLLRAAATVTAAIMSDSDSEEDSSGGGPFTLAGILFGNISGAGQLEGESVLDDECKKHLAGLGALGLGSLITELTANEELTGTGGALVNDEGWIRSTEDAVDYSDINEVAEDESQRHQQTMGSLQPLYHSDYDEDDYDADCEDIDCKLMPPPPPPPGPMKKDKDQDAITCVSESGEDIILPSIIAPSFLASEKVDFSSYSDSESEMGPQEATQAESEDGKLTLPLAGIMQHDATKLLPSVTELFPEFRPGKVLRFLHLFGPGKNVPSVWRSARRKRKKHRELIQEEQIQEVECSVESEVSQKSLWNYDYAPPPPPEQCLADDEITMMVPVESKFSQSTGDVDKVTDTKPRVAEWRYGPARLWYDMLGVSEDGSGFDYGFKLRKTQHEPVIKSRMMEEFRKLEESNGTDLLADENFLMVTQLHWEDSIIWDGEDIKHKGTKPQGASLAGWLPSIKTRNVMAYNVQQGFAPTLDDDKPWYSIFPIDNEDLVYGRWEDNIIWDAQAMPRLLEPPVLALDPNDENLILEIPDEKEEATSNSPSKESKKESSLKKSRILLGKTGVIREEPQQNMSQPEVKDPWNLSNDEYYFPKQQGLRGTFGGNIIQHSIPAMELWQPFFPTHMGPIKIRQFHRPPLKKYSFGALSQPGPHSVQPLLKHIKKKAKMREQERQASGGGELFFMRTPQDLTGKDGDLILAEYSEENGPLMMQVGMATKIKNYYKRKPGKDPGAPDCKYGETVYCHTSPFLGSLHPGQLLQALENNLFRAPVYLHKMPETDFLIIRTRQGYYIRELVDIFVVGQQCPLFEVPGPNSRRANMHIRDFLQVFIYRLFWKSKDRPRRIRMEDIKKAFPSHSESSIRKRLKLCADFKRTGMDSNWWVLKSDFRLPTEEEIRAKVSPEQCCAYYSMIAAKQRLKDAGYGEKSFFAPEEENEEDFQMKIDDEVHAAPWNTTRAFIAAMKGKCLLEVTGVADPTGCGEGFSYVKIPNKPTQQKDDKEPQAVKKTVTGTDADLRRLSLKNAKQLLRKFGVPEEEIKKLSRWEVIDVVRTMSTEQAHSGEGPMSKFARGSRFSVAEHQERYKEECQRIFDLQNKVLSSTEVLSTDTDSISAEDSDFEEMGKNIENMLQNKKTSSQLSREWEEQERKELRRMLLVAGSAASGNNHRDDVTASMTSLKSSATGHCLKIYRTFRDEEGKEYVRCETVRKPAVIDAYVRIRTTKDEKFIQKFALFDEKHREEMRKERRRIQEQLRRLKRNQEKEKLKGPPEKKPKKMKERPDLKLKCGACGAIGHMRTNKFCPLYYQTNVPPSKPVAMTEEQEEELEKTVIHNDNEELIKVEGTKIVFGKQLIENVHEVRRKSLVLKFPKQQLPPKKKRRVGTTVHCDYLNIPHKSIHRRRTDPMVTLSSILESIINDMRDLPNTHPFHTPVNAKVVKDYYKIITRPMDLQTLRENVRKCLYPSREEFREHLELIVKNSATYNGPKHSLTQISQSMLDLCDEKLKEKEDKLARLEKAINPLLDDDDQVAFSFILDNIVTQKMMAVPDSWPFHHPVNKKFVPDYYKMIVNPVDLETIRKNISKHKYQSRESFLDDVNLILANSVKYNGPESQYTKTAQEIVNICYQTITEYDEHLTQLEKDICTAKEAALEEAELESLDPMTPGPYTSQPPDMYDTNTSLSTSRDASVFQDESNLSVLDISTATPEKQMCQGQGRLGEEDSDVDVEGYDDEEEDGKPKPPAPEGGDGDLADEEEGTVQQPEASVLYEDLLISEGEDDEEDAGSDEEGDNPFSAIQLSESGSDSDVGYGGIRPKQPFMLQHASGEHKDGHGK
Test: Inhibition of human TAF1L by BROMOscan assay
property_name: IC50 (µM)

structure_smiles_string: CC(=O)N1c2ccc(-c3ccc(C(=O)O)cc3)cc2[C@H](Nc2ccc(Cl)cc2)C[C@@H]1C
unit_spec: µM
reported_measurement: 31.6

###

Experiment: Blood clearance in Balb/c mouse at 10 mg/kg, iv as bolus dose
Assay type: ADME, organism-based
Parameters: dose 10 mg/kg, route intravenous
Conditions: whole blood
property_name: clearance (mL/min/kg)

structure_smiles_string: CC(=O)N1c2ccc(-c3ccc(C(=O)O)cc3)cc2[C@H](Nc2ccc(Cl)cc2)C[C@@H]1C
property_name: clearance
reported_measurement: 3.1

###

Assay: AUC (0 to t) in Cynomolgus monkey at 2 mg/kg, po
Assay type: ADME, organism-based, Macaca fascicularis
Design: dose 2 mg/kg, route oral
Settings: plasma
property_name: AUC(0-t) (ng·h/mL)

structure_smiles_string: CC(=O)N1c2ccc(-c3ccc(C(=O)O)cc3)cc2[C@H](Nc2ccc(Cl)cc2)C[C@@H]1C
property_name: AUC(0-t)
unit_spec: ng·h/mL
reported_measurement: 11000

###

Assay: Permeability of the compound by PAMPA
Format: ADME
Conditions: read-out: permeability

structure_smiles_string: CC(=O)N1c2ccc(-c3ccc(C(=O)O)cc3)cc2[C@H](Nc2ccc(Cl)cc2)C[C@@H]1C
unit_spec: ×10⁻⁶ cm/s
Papp: 9.5

###

Molecular target: ATPase family AAA domain-containing protein 2B (Homo sapiens)
Assay: Inhibition of human ATAD2B by BROMOscan assay

structure_smiles_string: CC(=O)N1c2ccc(-c3ccc(C(=O)O)cc3)cc2[C@H](Nc2ccc(Cl)cc2)C[C@@H]1C
IC50: > 31.6 µM

###

Test: Terminal half life in Cynomolgus monkey at 1 mg/kg, iv as infusion
Format: ADME, organism-based, Macaca fascicularis
Set-up: dose 1 mg/kg, route intravenous
Settings: in vivo, read-out: beta t1/2 (converted)

structure_smiles_string: CC(=O)N1c2ccc(-c3ccc(C(=O)O)cc3)cc2[C@H](Nc2ccc(Cl)cc2)C[C@@H]1C
half-life: 2.7 h

###

Assay: Oral bioavailability in beagle dog at 3 mg/kg
Format: ADME, organism-based, Canis lupus familiaris
Settings: in vivo

structure_smiles_string: CC(=O)N1c2ccc(-c3ccc(C(=O)O)cc3)cc2[C@H](Nc2ccc(Cl)cc2)C[C@@H]1C
unit_spec: %
bioavailability: 80

###

Molecular target: Transcription initiation factor TFIID subunit 1 (Homo sapiens, UniProt P21675)
Test: Inhibition of human TAF1 by BROMOscan assay
property_name: IC50

structure_smiles_string: CC(=O)N1c2ccc(-c3ccc(C(=O)O)cc3)cc2[C@H](Nc2ccc(Cl)cc2)C[C@@H]1C
property_name: IC50
reported_measurement: 31.6 µM

###

Target: SWI/SNF-related matrix-associated actin-dependent regulator of chromatin subfamily A member 2 (Homo sapiens)
Assay: Inhibition of human SMARCA2 by BROMOscan assay

structure_smiles_string: CC(=O)N1c2ccc(-c3ccc(C(=O)O)cc3)cc2[C@H](Nc2ccc(Cl)cc2)C[C@@H]1C
IC50: > 31.6 µM

The origin of these recorded values is ChEMBL document CHEMBL3351476.
